The measured values listed here are drawn from ChEMBL document CHEMBL5291721.

# study-system: Histamine H1 receptor (Homo sapiens); further: assay procedure not described here
# Sequence (P35367 whole entry): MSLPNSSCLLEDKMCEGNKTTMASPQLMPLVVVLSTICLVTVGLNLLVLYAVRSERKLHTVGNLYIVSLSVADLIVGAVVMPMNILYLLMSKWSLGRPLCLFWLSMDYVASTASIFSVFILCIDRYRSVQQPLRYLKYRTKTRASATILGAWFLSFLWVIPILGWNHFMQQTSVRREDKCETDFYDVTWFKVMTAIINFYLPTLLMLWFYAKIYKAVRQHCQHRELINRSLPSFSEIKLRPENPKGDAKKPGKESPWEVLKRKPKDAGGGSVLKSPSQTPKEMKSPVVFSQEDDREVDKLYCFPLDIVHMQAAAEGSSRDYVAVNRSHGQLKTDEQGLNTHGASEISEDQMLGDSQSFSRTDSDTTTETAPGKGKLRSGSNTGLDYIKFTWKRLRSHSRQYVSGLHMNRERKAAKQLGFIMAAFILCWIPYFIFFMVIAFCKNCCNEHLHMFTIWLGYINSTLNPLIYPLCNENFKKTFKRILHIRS
AC50: recorded values

molecule	study-system	AC50
COc1ccc(C(=O)NCc2ccc(OCCN(C)C)cc2)cc1OC [ITOPRIDE]	Histamine H1 receptor (Homo sapiens)	> 30 µM
CN[C@@H](C)[C@H](O)c1ccccc1	Histamine H1 receptor (Homo sapiens)	> 10 µM
O=C(CCCCC(=O)Nc1c(I)cc(I)c(C(=O)O)c1I)Nc1c(I)cc(I)c(C(=O)O)c1I [IODIPAMIDE]	Histamine H1 receptor (Homo sapiens)	> 10 µM
O=C(OCCN1CCOCC1)c1cccnc1Nc1cccc(C(F)(F)F)c1 [MORNIFLUMATE]	Histamine H1 receptor (Homo sapiens)	> 30 µM
N/N=c1/cc2c(n[nH]1)CCN(C(=O)c1ccccc1)C2	Histamine H1 receptor (Homo sapiens)	> 30 µM

Lab note: next molecule to report on.
Kindly note the recorded AC50 for C#CCN[C@@H]1CCc2ccccc21 , which is > 30 µM
